Experimental target: CCR2 (Homo sapiens)
Sequence (P41597 1-360 isoform P41597-2): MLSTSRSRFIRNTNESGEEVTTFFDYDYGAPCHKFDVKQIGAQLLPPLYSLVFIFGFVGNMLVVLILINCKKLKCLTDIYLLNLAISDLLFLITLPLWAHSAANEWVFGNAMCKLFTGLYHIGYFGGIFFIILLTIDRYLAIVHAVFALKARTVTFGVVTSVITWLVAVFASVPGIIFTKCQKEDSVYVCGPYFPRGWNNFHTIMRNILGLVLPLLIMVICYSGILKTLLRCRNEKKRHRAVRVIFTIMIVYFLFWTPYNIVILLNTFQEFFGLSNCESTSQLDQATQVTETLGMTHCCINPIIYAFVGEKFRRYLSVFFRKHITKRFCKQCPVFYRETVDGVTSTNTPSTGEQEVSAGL
pIC50: −log10 of the molar value.
Observable: pIC50

Worked set:
INSERT INTO assay_data (molecule, readout_number) VALUES
  ('O=C(/C=C/c1cc(F)cc(F)c1)N1CCC(C(CO)N2CCC(c3ccncc3)CC2)CC1 (stereo not drawn) [Cpd 182]', 6.48),
  ('O=C(/C=C/c1cc(F)cc(F)c1)N1CCC(C(CO)N2CCC(c3ccccn3)CC2)CC1 (stereo not drawn) [Cpd 200]', 5.70),
  ('CC(=O)NCC(C1CCN(C(=O)/C=C/c2cc(F)cc(F)c2)CC1)N1CCC(c2c[nH]c3ccccc23)CC1 (stereo not drawn) [Cpd 214]', 7.15),
  ('O=C(O)C(C1CCN(C(=O)/C=C/c2cc(F)c(F)c(F)c2)CC1)N1CCC(n2ccc3ccccc32)CC1 (stereo not drawn) [Cpd 10]', 5.07),
  ('N=C(NC(=O)c1cc(F)c(F)c(F)c1)N1CCC(C(C(=O)O)N2CCC(c3c[nH]c4ccccc34)CC2)CC1 (stereo not drawn) [Cpd 52]', 7.52);

[I] COc1ccc(C2CCN(C(C(=O)O)C3CCN(C(=O)/C=C/c4cc(F)c(F)c(F)c4)CC3)CC2)cc1 (stereo not drawn) [Cpd 5]
[II] CS(=O)(=O)N(CC(C1CCN(C(=O)/C=C/c2cc(F)cc(F)c2)CC1)N1CCC(c2c[nH]c3ccccc23)CC1)S(C)(=O)=O (stereo not drawn) [Cpd 134]
(Q) Looking at I and II , which one comes out lower in pIC50 terms? Field: selected label. Fill in the label of the entry you choose.
(A) I
